- assayed_target: recombinant SARS-CoV-2 M^pro (Severe acute respiratory syndrome coronavirus 2 (2019-nCoV) (SARS-CoV-2))
- protocol_text: Inhibition of SARS-CoV-2 M^pro enzyme activity (fluorescent substrate assay)
- Assay type: biochemical
- measurement_parameters: inhibition of SARS-CoV-2 M^pro enzyme activity; values in nM; read-out: IC50
Hi! Could you tag entries with IC50 below 20 nM as Yes, and those at or above as No? Much appreciated.

> print(dat)
                                    compound  class
 1  COC[C@@H](NC(=O)CC1CCC(F)(F)CC1)C(=O)N[C@H](Cc1ccccc1)C(=O)C(=O)NCc1nccs1    Yes
 2  C[C@@H](NC(=O)c1cc2ccccc2o1)C(=O)N[C@H](Cc1ccccc1)C(=O)C(=O)NCc1ccccn1     No
 3  C[C@@H](NC(=O)C1CCCCCC1)C(=O)N[C@H](Cc1ccccc1)C(=O)C(=O)NCc1nccs1    Yes
 4  O=C(NCc1ccccn1)C(=O)[C@@H](Cc1ccccc1)NC(=O)C1(NC(=O)[C@@H]2C[C@@H]3[C@H](C2)C3(F)F)CC1    Yes
 5  O=C(CNC(=O)C1CCOCC1)N[C@H](Cc1ccccc1)C(=O)C(=O)NCc1ccccn1     No
 6  CC(C)(NC(=O)c1ccc(F)c(OC(F)(F)F)c1)C(=O)N[C@H](Cc1ccccc1)C(=O)C(=O)NCc1ccccn1    Yes
 7  O=C(NCc1ccccn1)C(=O)[C@@H](Cc1ccccc1)NC(=O)[C@@H](Cc1cccnc1)NC(=O)C1CCC(F)(F)CC1     No
 8  CC1(C)C(C(=O)NC2(C(=O)N[C@H](Cc3ccccc3)C(=O)C(=O)NCc3ccccn3)CCC2)C1(C)C     No
 9  CC(C)(O)[C@@H](NC(=O)C1CCC(F)(F)CC1)C(=O)N[C@H](Cc1ccccc1)C(=O)C(=O)NCc1ccccn1     No
10  CC(C)(NC(=O)CCC1CCC(F)(F)CC1)C(=O)N[C@H](Cc1ccccc1)C(=O)C(=O)NCc1ccccn1    Yes
11  O=C(NCc1nccs1)C(=O)[C@@H](Cc1ccccc1)NC(=O)[C@H]1COCCN1C(=O)CC1CC(F)(F)C1    Yes
12  O=C(CC1CC(F)(F)C1)NCC(=O)N[C@H](Cc1ccccc1)C(=O)C(=O)NCc1nccs1    Yes
13  C[C@@H](NC(=O)[C@@H](NC(=O)NC1(CS(=O)(=O)C(C)(C)C)CCCCC1)C(C)(C)C)C(=O)N[C@H](Cc1ccccc1)C(=O)C(=O)NCc1ccccn1     No
14  O=C(NCc1ccccn1)C(=O)[C@@H](Cc1ccccc1)NC(=O)[C@@H]1[C@H]2CCC[C@H]2CN1C(=O)NC1CCCCC1     No
15  CS(=O)(=O)CC[C@@H](NC(=O)C1CCCC(F)(F)C1)C(=O)N[C@H](Cc1ccccc1)C(=O)C(=O)NCc1nccs1 (stereo partly drawn)     No
16  CC(C)(C(=O)N[C@H](Cc1ccccc1)C(=O)C(=O)NCc1ccccn1)n1cc(-c2ccccc2F)cn1     No
17  C#CCC(NC(=O)C1CCC(F)(F)CC1)C(=O)N[C@H](Cc1ccccc1)C(=O)C(=O)NCc1ccccn1 (stereo partly drawn)     No
18  O=C(CC1CCCC1)NC1(C(=O)N[C@H](Cc2ccccc2)C(=O)C(=O)NCc2ccccn2)CCC1    Yes
19  C[C@H](c1ccccc1)N1C[C@H](C(=O)N[C@H](C)C(=O)N[C@H](Cc2ccccc2)C(=O)C(=O)NCc2ccccn2)CC1=O     No
20  C[C@@H](NC(=O)CC1CC1(F)F)C(=O)N[C@H](Cc1ccccc1)C(=O)C(=O)NCc1nccs1 (stereo partly drawn)     No
21  C[C@@H](NC(=O)C(C)(C)c1ccccc1)C(=O)N[C@H](Cc1ccccc1)C(=O)C(=O)NCc1ccccn1     No
22  COc1ccc(COC(C)(C)C(=O)N[C@H](Cc2ccccc2)C(=O)C(=O)NCc2ccccn2)cc1F     No
23  C[C@@H](OCc1cc(F)cc(Cl)c1)C(=O)N[C@H](Cc1ccccc1)C(=O)C(=O)NCc1ccc(Cl)cn1    Yes
24  O=C(NCc1ccccn1)C(=O)[C@@H](Cc1ccccc1)NC(=O)[C@H]1Cc2ccccc2CN1C(=O)N1CCC(F)(F)CC1    Yes
25  C[C@@H](OCc1ccc(Cl)cc1)C(=O)N[C@H](Cc1ccccc1)C(=O)C(=O)NCc1ccc(Cl)cn1    Yes
26  O=C(NCc1ccccn1)C(=O)[C@@H](Cc1ccccc1)NC(=O)[C@@H]1COCCN1C(=O)CC1CCC(F)(F)CC1    Yes

====

# key: entry, value: clearance
- protocol_text: in vivo
- measurement_parameters: male, Sprague-Dawley, rat, iv, 1 mg/kg
measured_endpoint: clearance (mL/min/kg)

> print(dat)
                                 cpd.smiles  measured.endpoint  unit.annotation  numeric.readout
1  O=C(CNC(=O)C1CCC(F)(F)CC1)N[C@H](Cc1ccccc1)C(=O)C(=O)NCc1ccccn1          clearance        mL/min/kg             0.88
2  C[C@@H](NC(=O)[C@@H]1C[C@@H]2[C@H](C1)C2(F)F)C(=O)N[C@H](Cc1ccccc1)C(=O)C(=O)NCc1ccccn1          clearance        mL/min/kg             4.63
3  C[C@@H](NC(=O)N1CCC(F)(F)CC1)C(=O)N[C@H](Cc1ccccc1)C(=O)C(=O)NCc1ccccn1          clearance        mL/min/kg             4.65
4  C[C@@H](NC(=O)C1CCC(F)(F)CC1)C(=O)N[C@H](Cc1ccccc1)C(=O)C(=O)NCc1ccccn1          clearance        mL/min/kg             1.73
5  O=C(CC1CCC(F)(F)CC1)NCC(=O)N[C@H](Cc1ccccc1)C(=O)C(=O)NCc1ccccn1          clearance        mL/min/kg             0.83

====

- assayed_target: human cathepsin B (Homo sapiens (Human))
// reported IC50 per item
measured_endpoint: IC50

> print(dat)
                                   compound    result
1  COC[C@@H](NC(=O)C1CCCC(F)(F)C1)C(=O)N[C@H](Cc1ccccc1)C(=O)C(=O)NCc1nccs1 (stereo partly drawn)  > 100 µM
2  COC[C@@H](NC(=O)C1CCC(F)(F)CC1)C(=O)N[C@H](Cc1ccccc1)C(=O)C(=O)NCc1nccs1  > 100 µM
3  COC[C@@H](NC(=O)CC1CC(F)(F)C1)C(=O)N[C@H](Cc1ccccc1)C(=O)C(=O)NCc1nccs1  > 100 µM
4  C[C@@H](NC(=O)CC1CC(F)(F)C1)C(=O)N[C@H](Cc1ccccc1)C(=O)C(=O)NCc1nccs1  > 100 µM
5  C[C@@H](NC(=O)CC1CC1(F)F)C(=O)N[C@H](Cc1ccccc1)C(=O)C(=O)NCc1cscn1 (stereo partly drawn)  > 100 µM
6  C[C@@H](NC(=O)C1CCC(F)(F)C1)C(=O)N[C@H](Cc1ccccc1)C(=O)C(=O)NCc1nccs1 (stereo partly drawn)  > 100 µM

====

Reported AUC(0-t) by item:
- protocol_text: in vivo
- measurement_parameters: male, Sprague-Dawley, rat, po, 10 mg/kg
measured_endpoint: AUC(0-t) (ng·h/mL)

> print(dat)
                                   compound  numeric.readout
1  C[C@@H](NC(=O)CC1CC1(F)F)C(=O)N[C@H](Cc1ccccc1)C(=O)C(=O)NCc1cscn1 (stereo partly shown)             4890
2  O=C(CC1CCC(F)(F)CC1)NCC(=O)N[C@H](Cc1ccccc1)C(=O)C(=O)NCc1ccccn1            12600
3  O=C(NCc1ccccn1)C(=O)[C@@H](Cc1ccccc1)NC(=O)[C@H]1COCCN1C(=O)[C@H](NC(=O)c1cnccn1)C1CCCCC1             3110
4  O=C(NCc1ccccn1)C(=O)[C@@H](Cc1ccccc1)NC(=O)[C@H]1COCCN1C(=O)C1CCC(F)(F)CC1             3490

====

IC50 by entry:
- assayed_target: recombinant SARS-CoV-2 M^pro (Severe acute respiratory syndrome coronavirus 2 (2019-nCoV) (SARS-CoV-2), UniProt P0DTD1)
- protocol_text: Inhibition of SARS-CoV-2 M^pro enzyme activity (fluorescent substrate assay)
- Format: biochemical
- measurement_parameters: inhibition of SARS-CoV-2 M^pro enzyme activity; values in nM; read-out: IC50
measured_endpoint: IC50 (nM)

> print(dat)
                                    compound  measured.endpoint  unit.annotation  numeric.readout
 1  C[C@@H](OCc1cccc(OC(F)(F)F)c1)C(=O)N[C@H](Cc1ccccc1)C(=O)C(=O)NCc1ccc(Cl)cn1 [Compound 47]               IC50               nM             14.1
 2  O=C(NCc1nccs1)C(=O)[C@@H](Cc1ccccc1)NC(=O)c1cccc(F)c1 [Compound 472]               IC50               nM              478
 3  COC[C@@H](NC(=O)NC1CCC(F)(F)CC1)C(=O)N[C@H](Cc1ccccc1)C(=O)C(=O)NCc1nccs1 [Compound 551]               IC50               nM             23.3
 4  O=C(NCc1ccccn1)C(=O)[C@@H](Cc1ccccc1)NC(=O)C1(NC(=O)C2CCC(F)(F)CC2)CCC1 [Compound 187]               IC50               nM             10.7
 5  O=C(NCc1ccccn1)C(=O)[C@@H](Cc1ccccc1)NC(=O)C1(NC(=O)C2CCC(F)(F)CC2)CC1 [Compound 169]               IC50               nM             22.6
 6  O=C(NCc1nccs1)C(=O)[C@@H](Cc1ccccc1)NC(=O)[C@H]1COCCN1C(=O)[C@@H]1C[C@@H]2[C@H](C1)C2(F)F [Compound 412]               IC50               nM             24.8
 7  C[C@@H](NC(=O)C1CCC(F)(F)CC1)C(=O)N[C@H](Cc1ccccc1)C(=O)C(=O)NCc1ccncn1 [Compound 338]               IC50               nM               20
 8  O=C(NCc1ccccn1)C(=O)[C@@H](Cc1ccccc1)NC(=O)[C@@H]1[C@H]2CCC[C@H]2CN1C(=O)[C@@H](NC(=O)c1cnccn1)C1CCCCC1 [Compound 261]               IC50               nM              864
 9  CC(C)(NC(=O)C1CCC(F)(F)CC1)C(=O)N[C@H](Cc1ccccc1)C(=O)C(=O)NCc1ccccn1 [Compound 172]               IC50               nM             14.9
10  O=C(NCc1ccccn1)C(=O)[C@@H](Cc1ccccc1)NC(=O)C1(NC(=O)c2[nH]nc3c2COCC3)CCC1 [Compound 200]               IC50               nM              219
11  O=C(NCc1ccccn1)C(=O)[C@@H](Cc1ccccc1)NC(=O)[C@H]1CC(F)CN1C(=O)C1CCC(F)(F)CC1 (some centres unmarked) [Compound 278]               IC50               nM             33.7
12  C[C@@H](NC(=O)Cc1ccc(Cl)cc1)C(=O)N[C@H](Cc1ccccc1)C(=O)C(=O)NCc1ccccn1 [Compound 76]               IC50               nM               23
13  C[C@@H](NC(=O)CC1CC(F)(F)C1)C(=O)N[C@H](Cc1ccco1)C(=O)C(=O)NCc1ccccn1 [Compound 364]               IC50               nM             75.1
14  O=C(CNC(=O)C1CCCC(F)(F)C1)N[C@H](Cc1ccccc1)C(=O)C(=O)NCc1cscn1 (some centres unmarked) [Compound 430]               IC50               nM               20
